Tested on: fMLF-stimulated human neutrophils (FPR1 agonist fMLF)
Procedure summary: Inhibition of fMLF-induced [Ca2+]i
Format: cell-based
Measurement context: pure compounds; 10 min pretreatment, 5 nM fMLF; read-out: Inhibition of [Ca^2+]i fMLF-Induced IC50
From the text: We obtained human neutrophils using blood collected from healthy donors. Blood collection was approved by the Institutional Review Board at Montana State University (Protocol #MQ041017). Neutrophils were isolated as described previously. The isolated neutrophils were resuspended in HBSS^–. Neutrophil preparations were routinely >95% pure and >98% viable, as determined by light microscopy and trypan blue exclusion, respectively. […]
Measured metric: IC50

Q. Indicate the recorded IC50 value for this compound: CC12CCC(CC1=O)C2(C)C (stereo not drawn) [(+)-Camphor]
A. > 55 µM
